// data source = patent US20220177594A1

Reported values of ELISA ratio for individual entries
Target: Feline_OSMR_hlgG1_Fc (feline)
Sequence (chain, as listed by the source limits assumed, form in doubt): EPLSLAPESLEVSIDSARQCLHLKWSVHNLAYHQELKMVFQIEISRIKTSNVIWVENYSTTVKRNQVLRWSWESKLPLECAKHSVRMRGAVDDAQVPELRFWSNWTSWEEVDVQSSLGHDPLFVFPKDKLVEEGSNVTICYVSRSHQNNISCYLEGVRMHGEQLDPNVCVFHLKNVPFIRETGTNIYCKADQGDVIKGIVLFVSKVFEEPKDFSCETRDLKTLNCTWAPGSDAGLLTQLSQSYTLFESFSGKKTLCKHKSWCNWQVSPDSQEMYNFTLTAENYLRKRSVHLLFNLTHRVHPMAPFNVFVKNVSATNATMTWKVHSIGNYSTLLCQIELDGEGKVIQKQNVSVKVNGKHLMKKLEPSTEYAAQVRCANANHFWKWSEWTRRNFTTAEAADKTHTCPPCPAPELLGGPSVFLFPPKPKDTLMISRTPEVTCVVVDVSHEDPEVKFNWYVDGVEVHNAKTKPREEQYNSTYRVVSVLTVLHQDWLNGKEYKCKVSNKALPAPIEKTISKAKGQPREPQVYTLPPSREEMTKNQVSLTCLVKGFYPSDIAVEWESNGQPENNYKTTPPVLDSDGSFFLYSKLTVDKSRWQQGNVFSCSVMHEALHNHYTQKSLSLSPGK
Experiment: indirect ELISA, fOSMR coated; OD ratio to antibody expression control
Give just the number in OD ratio; leave the unit off.

>  <BINDER>
Mu_09E09_VH (SEQ ID NO: 35)_Y59A (antibody, V domains shown) VH: DVKLVESGEGLVKPGGSLKLSCAASGFTFSSYAMSWVRQTPEKRLEWVAYISSGGDYIAYADTVKGRFTISRDNARNTLYLQMSSLKSEDTAMYYCTRDPITGTFAYWGQGTLVTVSA VL: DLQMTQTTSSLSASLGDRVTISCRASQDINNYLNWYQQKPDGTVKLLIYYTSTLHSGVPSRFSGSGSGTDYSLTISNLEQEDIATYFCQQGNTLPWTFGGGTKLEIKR

>  <UNIT_TEXT>
OD ratio

>  <REPORTED_RESULT>
0.011

$$$$

Now look at this one.
Task: For the binder Mu_02D09_VL (SEQ ID NO: 33)_I29A (antibody, V domains shown) VH: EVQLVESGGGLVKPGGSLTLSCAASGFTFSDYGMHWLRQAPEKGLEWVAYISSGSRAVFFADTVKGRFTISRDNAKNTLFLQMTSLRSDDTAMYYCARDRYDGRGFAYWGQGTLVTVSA VL: DIVLTQSPATLSVTPGDSVSLSCRASQSASNNLHWYQQTSHESPRLLITYASQSISGIPSRFSGSGSGTDFTLSINSVETEDFGMYFCQQSNSWPLTFGAGTKLELKR , give its measured ELISA ratio value.
Output: 0.377
